For each record, write down the corresponding Z score.
- Tested on: Plasmodium falciparum
- assay: Primary screen in NF54 nanoGlo assay, in single point, at 2uM, 72h; a lower Z score goes with more inhibition
- Type: functional, Erythrocyte
- condition_parameters: timepoint 72 hour
Among all 150,000 compounds or so, about 540 (0.36%) showed an effect of 50% or more. The sample holds strong results, similar compounds and a random draw of the others, so the mix is not that of the screen.

>>> measured_value("C[C@@]1(C(=O)N2CCN(c3ccccc3F)CC2)Oc2ccccc2NC1=O")
-0.16
>>> measured_value("COc1ccc(C(=O)N2CCN(C(=O)c3cccnc3)[C@@H](C(=O)N[C@H]3CCCNC3=O)C2)cc1")
1.08
>>> measured_value("C[C@H](OC(=O)CNC(=O)OC(C)(C)C)C(=O)N1CCCCCC1")
1.29
>>> measured_value("COc1ccc(-n2c(-c3sc(Nc4ccc(Cl)cc4)nc3C)nc3ccccc3c2=O)cc1")
0.38
>>> measured_value("COc1ncc(C(=O)NCCCn2ccnc2)cn1")
1.29

For every record below, what is its Z score?
1. NC(=O)CC(=O)Nc1ncc(-c2ccccc2F)s1
2. CC(C)(C)OC(=O)N1CCN(c2nnc(NC(=O)c3c(F)cccc3F)[nH]2)CC1
3. CCOC(=O)Nc1nc(C)c(-c2nc3ccccc3c(=O)n2-c2ccc(OC)cc2)s1
4. O=C(c1n[nH]c2c1CCCCCC2)N1CCC(c2nc(C3CCOCC3)no2)CC1

-0.56
1.7
0.52
0.4

Please give Z score, item by item, for the list that follows.
1. COCCN1CC[C@H](CN(C)c2ccncn2)C1
2. Oc1ccccc1C1=NN[C@@](O)(C(F)(F)C(F)F)C1
3. NC(=O)N1CCCC(C(=O)N2CCCC2c2ccc(F)c(F)c2)C1 (configuration not stated)
4. COC(=O)[C@H](CN)Oc1ccc(F)cc1
5. N#Cc1cc(OCC(F)F)nc2ccccc12
6. O=C(N[C@H]1C[C@@H]2C[C@H]1N(C(=O)c1ccccc1C(F)(F)F)C2)c1cccnc1
7. COc1ccccc1-c1nnc2c3ccc(Cl)cc3nc(N3CCN(C(=O)c4ccc(C)cc4)CC3)n12
8. O=C1Cc2cc(S(=O)(=O)Nc3ccccc3C(=O)NCc3ccco3)ccc2N1

1: -0.2; 2: 0.8; 3: 0.02; 4: -0.27; 5: 0.76; 6: -3.96; 7: 1.38; 8: 3.76

Please give Z score, item by item, for the list that follows.
1. CCN(CC)CCN(CC)C(=O)c1cccc(-c2ccc(C)nc2N)c1
2. Cc1c(CN(C)C(=O)c2ccc(-c3ccc4c(c3)OCC4)cc2)cnn1C
3. CCN(CCN(C)C)C(=O)c1cccc(-c2ncccc2C)c1
4. COc1ccc(CN2C[C@H]3CC[C@@H](C2)N(CC=C(C)C)C3)cc1CN(C)C
5. COC(=O)Nc1nc(-c2ccccc2)c(-c2nc3ccccc3c(=O)n2-c2ccc(OC)cc2)s1

1. 0.71
2. 2.12
3. 0.81
4. 1.87
5. -6.56
